For each of the compounds below, state its inhibition.
SUBJECT_OF_TEST: L-lactate dehydrogenase (Plasmodium falciparum (isolate CDC / Honduras)) (UniProt Q27743)
Sequence (Q27743 whole entry, looked up): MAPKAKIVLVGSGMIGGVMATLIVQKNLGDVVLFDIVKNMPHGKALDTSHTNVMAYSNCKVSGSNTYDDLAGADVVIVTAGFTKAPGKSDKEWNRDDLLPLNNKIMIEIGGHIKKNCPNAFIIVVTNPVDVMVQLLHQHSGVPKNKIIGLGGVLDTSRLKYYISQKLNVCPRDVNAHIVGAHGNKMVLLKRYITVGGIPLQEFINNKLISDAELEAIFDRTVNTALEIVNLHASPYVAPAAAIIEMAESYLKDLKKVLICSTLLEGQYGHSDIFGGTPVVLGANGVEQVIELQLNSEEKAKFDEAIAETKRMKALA
TEST_METHOD_NOTES: PfLDH activity inhibition – cell lysate, 3D7 strain, counter-screen for P. falciparum growth inhibition project (AID 2304);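 also: 0% = vehicle and 100% = reference inhibitor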
PARTICULARS: P. falciparum 3D7 crude extract, LDH APAD/NBT absorbance; at 2 µM; stronger effect = higher value
Give bare numbers, in %.

CC1(C)N=C(N)N=C(N)C1c1ccc(Cl)cc1 (centres undefined): 1
O=C(Nc1ccc(C(F)(F)F)cc1)N[C@H]1CCN(CCCCCNC(=O)[C@@H]2C[C@H]2c2ccc(Cl)c(Cl)c2)C1: -2
COc1cc(NC(=O)Nc2ccc([N+](=O)[O-])cc2OC)c(OC)cc1Cl: 3
Cc1ccnc2nc(C(=O)Nc3cc(Cl)ccc3N3CCOCC3)nn12: -1
OCc1ccc(-c2cncc(Nc3ccc(F)c(Cl)c3)c2)cc1: -2
COc1ccc(Nc2c3ccc(Cl)cc3nc3ccc(OC)cc23)cc1: 3
COc1cccc2c(NCCNc3ccnc4c(OC)cccc34)ccnc12: 0
O=C(Nc1ccc(-c2ccc(-c3nc4ccccc4[nH]3)s2)cc1)Nc1ccc(F)c(F)c1F: 5
CC(=O)Nc1ccccc1OCc1cc2cc(C(=O)N3CCC(N4C(=O)OCc5ccccc54)CC3)ccc2o1: -2
Cc1ccc(Nc2nc(-c3ccccn3)cs2)nc1: -8

Lab note: each compound below needs its inhibition filled in.
1. Cc1ccc(C(NC(=O)Cc2ccccc2)c2ccc3cccnc3c2O)cc1 (centres undefined)
2. CN1CCN(CCCN(Cc2csc(-c3ccc(CNCc4ccccc4)cc3)n2)S(=O)(=O)c2ccc(F)cc2)CC1
3. CCc1ccc(NC(=O)N(CCCn2ccnc2)Cc2csc(-c3ccc(CNCc4ccccc4)cc3)n2)cc1
4. CCN1CCCC(CNC(=O)/C(=C/C=C/c2cc3cc(Cl)c(Cl)cc3[nH]2)OC)C1 (centres undefined)
5. Nc1cccc(CNCc2cccc(-c3ccc(-c4nc5ccc(C(F)(F)F)cc5[nH]4)cc3)c2)c1
6. CCCCCCNC(=O)C(N)CCCC(N)C(=O)NCCCCCC (centres undefined)
7. Cn1nc(-c2ccc(NC(=O)Nc3cc(C(F)(F)F)ccc3F)c(F)c2)c2cnc(NCCCN3CCOCC3)nc21
8. CC(C)N1CCC(N(Cc2ccc(-c3ccc(Cl)cc3)cc2)C(=O)Cn2c(CCc3cccc(F)c3F)nc(=O)c3ccccc32)CC1

OUT:
6
3
3
-1
1
-2
3
5

Each compound below has a recorded value; state its inhibition.
1. COc1cc(NC(=O)/C=C/c2ccccc2OC(F)(F)F)cc(OCCN2CCN(CCN3CCOCC3)CC2)c1
2. Fc1ccc2nc(-c3cccc(-c4cccc(CNCCc5ccncc5)c4)c3)[nH]c2c1
3. CC(C)(C)c1cc(C(=O)N2CCN(c3ncccc3C(F)(F)F)CC2)n(Cc2ccccc2)n1
4. CCCNCc1ccc(-c2ccc(CN(CCOC)C(=O)CCc3ccc(OC)cc3)cc2)nc1

OUT:
-1
2
1
-1

For each listed entry, give its inhibition.
1. Cc1ccc(NC(=O)c2cnc(N3CCN(c4ccncc4)CC3)c(Cl)c2)cc1
2. CC(C)Oc1cc2c(cc1NS(=O)(=O)c1ccc(-c3ccc(Cl)cc3)cc1F)CCN(C)CC2
3. c1ccc2c(NCCc3cnc[nH]3)c3ccccc3nc2c1
4. CCCCOc1c(CCNCCCCNCCc2cc(F)c3ccccc3c2OCCCC)cc(F)c2ccccc12
5. COc1ccc(NCc2cccc(-c3cccc(CNCCc4ccccc4)c3)c2)cc1
6. O=C(Nc1ccc(-c2ccccc2)cc1)Nc1cccc(Cn2ncc(N3CCCNCC3)c(Cl)c2=O)c1
7. CCc1c(CCNCCCCCCNCCc2ccc(Br)cc2)ccc(OC)c1OC

OUT:
4
-1
6
-3
0
-1
0

Give inhibition for each of the items listed below.
1. CC(Cc1ccc(OCCN2CCN(c3ccccc3)CC2)cc1)NCC(O)c1cccc(Cl)c1F (centres undefined)
2. Cc1c(-c2cccc(C(C)(C)NCCCN3CCCCC3)c2)cnc(N)c1C
3. CC(C)(C)OC(=O)Nc1cccc(-c2csc(N=C(N)N)n2)c1
4. Cc1[nH]c(C)c(-c2ccc(CCc3ccc(F)cc3F)cc2)c(=O)c1Cl
5. Cc1cccc2[nH]c(-c3ccc(-c4cccc(NC(=O)Cc5cnc[nH]5)c4)cc3)nc12

OUT:
6
-1
2
-4
-4

Source listed as PubChem BioAssay.
